Assay: physchem
Conditions: aqueous solution, aqueous buffer
quantity_kind: solubility

INPUT: Determine its reported solubility: "NC(=O)c1cccc2cn(-c3ccc([C@@H]4CCCNC4)cc3)nc12"
OUTPUT: 700 to 1100 µg/mL
